Entry source: ChEMBL document CHEMBL1156428

target: Human immunodeficiency virus type 1 reverse transcriptase (Human immunodeficiency virus 1); assay: Inhibition of HIV1 RT mediated DNA-dependent DNA polymerization using chimeric substrate with RNA PPT primer extended at 3' end with upto 2 deoxyribonucleotides
pIC50: −log10 of the molar value.
REPORTED PROPERTY: pIC50

CCc1cc(NCc2nc3c(Cl)ccc(Cl)c3o2)c(O)nc1C    6.55

###

target: Human immunodeficiency virus type 1 reverse transcriptase (Human immunodeficiency virus 1, UniProt Q72547); test: Inhibition of HIV1 RT mediated DNA-dependent DNA polymerization
REPORTED PROPERTY: IC50 (nM)

CCc1cc(NCc2nc3c(Cl)ccc(Cl)c3o2)c(O)nc1C    290
